Measured target: Type-1 angiotensin II receptor (Oryctolagus cuniculus) (UniProt P34976)
Sequence (whole entry): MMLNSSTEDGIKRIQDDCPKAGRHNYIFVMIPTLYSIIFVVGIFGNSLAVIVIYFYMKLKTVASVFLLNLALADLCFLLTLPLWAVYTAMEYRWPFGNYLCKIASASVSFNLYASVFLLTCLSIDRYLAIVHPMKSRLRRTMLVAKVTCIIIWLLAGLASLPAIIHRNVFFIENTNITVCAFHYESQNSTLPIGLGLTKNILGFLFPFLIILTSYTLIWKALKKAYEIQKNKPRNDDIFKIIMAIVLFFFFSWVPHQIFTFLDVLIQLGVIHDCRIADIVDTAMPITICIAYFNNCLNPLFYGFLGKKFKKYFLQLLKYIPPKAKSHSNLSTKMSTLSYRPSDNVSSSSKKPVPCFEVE
Method summary: In vitro antagonist activity against Angiotensin II Receptor (Ang II) in isolated rabbit thoracic aorta.
Format: functional, tissue-based
Attribute measured: pKB
Reply with the value as a number alone.

Completed entries (count: 3):
{"Molecule": "CCCCCC[C@@H](C(=O)N1C[C@@H](Oc2ccc(CC(=O)O)cc2)C[C@H]1C(=O)O)n1cnc(NC(=O)c2ccccc2S(=O)(=O)O)c1", "Measured target": "Type-1 angiotensin II receptor (Oryctolagus cuniculus) (UniProt P34976)", "pKB": 8.4}
{"Molecule": "CCCCCCC(C(=O)O)n1cnc2cc(-c3ccccc3S(=O)(=O)O)ccc21 (stereo in doubt)", "Measured target": "Type-1 angiotensin II receptor (Oryctolagus cuniculus) (UniProt P34976)", "pKB": 5.6}
{"Molecule": "CCCCCC[C@@H](C(=O)N1C[C@@H](Oc2ccc(CC(=O)O)cc2)C[C@H]1C(=O)O)n1cnc2cc(-c3ccccc3S(=O)(=O)O)ccc21", "Measured target": "Type-1 angiotensin II receptor (Oryctolagus cuniculus) (UniProt P34976)", "pKB": 7.8}

# ---- query molecule ----
Provide one value: measured pKB of CCCCCC[C@H](C(=O)N1C[C@@H](Oc2ccc(CC(=O)O)cc2)C[C@H]1C(=O)O)n1cnc2cc(-c3ccccc3S(=O)(=O)O)ccc21
9
